Entry source: ChEMBL document CHEMBL1153635

# TARGET_OF_ASSAY: Prostaglandin G/H synthase 2 (Homo sapiens, UniProt P35354)
# Sequence (P35354 whole entry): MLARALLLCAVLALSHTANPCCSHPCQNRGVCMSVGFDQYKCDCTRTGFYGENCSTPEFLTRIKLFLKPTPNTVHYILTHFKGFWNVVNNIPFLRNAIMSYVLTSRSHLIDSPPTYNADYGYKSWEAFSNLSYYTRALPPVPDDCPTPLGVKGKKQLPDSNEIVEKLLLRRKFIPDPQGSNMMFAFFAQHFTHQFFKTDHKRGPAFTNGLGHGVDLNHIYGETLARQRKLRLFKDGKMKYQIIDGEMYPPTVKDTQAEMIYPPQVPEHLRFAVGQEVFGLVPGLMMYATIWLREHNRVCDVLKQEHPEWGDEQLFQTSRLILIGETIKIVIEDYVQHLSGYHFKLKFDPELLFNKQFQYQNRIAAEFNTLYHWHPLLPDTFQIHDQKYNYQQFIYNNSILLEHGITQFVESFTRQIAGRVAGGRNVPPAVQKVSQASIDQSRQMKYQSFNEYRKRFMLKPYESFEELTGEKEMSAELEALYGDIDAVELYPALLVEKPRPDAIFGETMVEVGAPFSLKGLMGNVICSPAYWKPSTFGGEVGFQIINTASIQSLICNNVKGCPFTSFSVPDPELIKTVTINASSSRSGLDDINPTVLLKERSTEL
# Assay type: tissue-based, Blood
# Description: Inhibition of COX2 in human whole blood assessed as inhibition of lipopolysaccharide-stimulated PGE2 production after 24 hrs by enzyme immunoassay
Hi! Could you tag entries with IC50 below 60 nM as 1 (yes), and those at or above as 0 (no)? Much appreciated.

Below are worked cases with known answers.
>>> category_label("CCCCNc1nc(-c2ccc(S(C)(=O)=O)cc2)cc(C(F)(F)F)n1")
"0 (no)"
>>> category_label("CS(=O)(=O)c1ccc(-c2cc(C(F)(F)F)nc(NCc3ccccc3)n2)cc1")
"1 (yes)"
>>> category_label("CS(=O)(=O)c1ccc(-c2cc(C(F)(F)F)nc(NC3CCCCC3)n2)cc1")
"0 (no)"
>>> category_label("CC(C)CNc1nc(-c2ccc(S(C)(=O)=O)cc2)cc(C(F)(F)F)n1")
"0 (no)"

Query: In the record for `CCCCOc1nc(-c2ccc(S(C)(=O)=O)cc2)cc(C(F)(F)F)n1` , is IC50 less than 60 nM?
Result: 0 (no)
